# System: HCT-116 colon
# experimental.protocol: NCI tumour cell line growth inhibition, 48 h
Provide the recorded GI50 for the entries that follow.

Item O=C1c2ccccc2C(=O)c2c1ccc1c(=O)n(-c3ccccc3C(F)(F)F)nnc21 has what recorded GI50?
1.85 µM

Repeat for the following molecule: NC1=NC(=O)/C(=C/c2ccc3ncccc3c2)S1
> 13.8 µM

Repeat for the following molecule: O=C(Nc1cccc(-n2cc(-c3ccncc3)c(-c3ccc(O)c(Cl)c3)n2)c1)c1cc(C(F)(F)F)cc(C(F)(F)F)c1
2.88 µM

Repeat for the following molecule: Cc1ccc(-c2nc3cc(Cl)c(Cl)cc3nc2C#N)cc1
90.3 µM

Repeat for the following molecule: C=C1C(=O)O[C@H]2[C@H]1CC/C(Cn1cc(-c3cccc(Cl)c3)nn1)=C\CC[C@@]1(C)O[C@@H]21
0.163 µM

Repeat for the following molecule: Cc1ccc(/C=C/c2c(C(=O)/C=C/c3ccc(Cl)cc3)c(C)nc3ccccc23)cc1
0.526 µM

---

# System: RXF 393 renal
# experimental.protocol: NCI tumour cell line growth inhibition, 48 h
observed.property: GI50

Item OCc1ccc(N2CCc3cc(F)ccc3C2)cc1Cl has what recorded GI50?
993 nM

Repeat for the following molecule: COc1ccc(-c2[nH]nc(N)c2-c2cc(OC)c3c(c2)OCO3)cc1
3630 nM

Repeat for the following molecule: Cc1c(-c2ccc(O)cc2)oc(=O)c2ccc(O)cc12
> 100000 nM

Repeat for the following molecule: O=C(Nc1ccc(-n2ccc3c(NC(=O)c4ccccc4)nccc32)cc1)Nc1cccc(C(F)(F)F)c1
2240 nM

---

# System: BT-549 breast
# experimental.protocol: NCI tumour cell line growth inhibition, 48 h
observed.property: log10 of TGI (log10 of the value in µM)
Hi team, quick reminder: these entries are log10 of TGI (µM).

Write down the reported log10 of TGI of Cc1ccc(Cl)cc1NC(=O)c1cc2ccccc2cc1O , test system: BT-549 breast.
0.11

Repeat for the following compound: CCOC(=O)/C(C#N)=C1\SS/C(=C(/C#N)C(=O)OCC)S1
1.51

Repeat for the following compound: CC(=O)OC(C)(C)/C=C/C(=O)[C@](C)(O)[C@H]1[C@H](O)C[C@@]2(C)[C@@H]3CC=C4[C@@H](C=C(O)C(=O)C4(C)C)[C@]3(C)C(=O)C[C@]12C
-1.07

Repeat for the following compound: CCOC(=O)c1c(NC(=O)c2ccccc2)sc2c3c(ccc12)OCN(C)C3
1.29

Repeat for the following compound: Cc1cc(C)c2c(=O)n(CC(O)CN3CCN(CCOCCO)CC3)sc2n1 (centres undefined)
1.49

Repeat for the following compound: O=C1c2ccccc2C(=O)c2c1ccc1c(=O)n(-c3ccccc3C(F)(F)F)nnc21
0.83

Repeat for the following compound: Cc1ccc(OCC2=NC3S/C(=C/c4ccc([N+](=O)[O-])o4)C(=O)N3N2)cc1 (centres undefined)
1.40

Repeat for the following compound: CC1OC(OC2C(OC(=O)[C@]34CCC(C)(C)C[C@H]3C3=CC[C@@H]5[C@@]6(C)CC[C@H](OC7OC(CO)C(O)C(O)C7OC7OC(CO)C(O)C(O)C7O)C(C)(C)[C@@H]6CC[C@@]5(C)[C@]3(C)CC4)OCC(O)C2O)C(O)C(O)C1OC1OCC(O)C(OC2OCC(O)C(O)C2O)C1O (some centres undefined)
1.03

---

# System: OVCAR-5 ovarian
# experimental.protocol: NCI tumour cell line growth inhibition, 48 h
observed.property: GI50

Item CCCCN=C(N)c1ccc(N2CCCN(c3ccc(C(N)=NCCCC)cc3)CC2)cc1 has what recorded GI50?
45.7 µM

Repeat for the following compound: c1ccc(-c2n(Cc3ccc4ccccc4c3)cc[n+]2Cc2ccc3ccccc3c2)cc1
1.36 µM

Repeat for the following compound: O=C1c2ccccc2C(=O)c2c1ccc1c(=O)n(-c3ccccc3C(F)(F)F)nnc21
2.19 µM

Repeat for the following compound: C=C1C(=O)O[C@H]2[C@H]1CC/C(Cn1cc(-c3cccc(Cl)c3)nn1)=C\CC[C@@]1(C)O[C@@H]21
1.21 µM

Repeat for the following compound: O=C(Nc1ccccc1C(F)(F)F)c1ccc(NC2=C(Cl)C(=O)N(Cc3ccccc3)C2=O)cc1
58 µM

Repeat for the following compound: NC(Cc1c[nH]c2ccc(F)cc12)C(=O)O (stereo not given)
814 µM

Repeat for the following compound: COc1cc(/C=C/C(=O)/C=C/c2cc3ccc(Cl)cc3n(Cc3ccccc3)c2=O)ccc1O
2.65 µM

Repeat for the following compound: COc1cccc(C2=C(c3cn(C)c4cc(F)ccc34)C(=O)NC2=O)c1
> 25 µM

Repeat for the following compound: CC(=O)[CH-]C(=O)c1ccccc1.CC(=O)[CH-]C(=O)c1ccccc1.CC(C)CCC[C@H](C)C1CCC2[C@@H]3CC=C4C[C@@H]([O-])CC[C@]4(C)C3CC[C@@]21C.CC(C)CCC[C@H](C)C1CCC2[C@@H]3CC=C4C[C@@H]([O-])CC[C@]4(C)C3CC[C@@]21C.Cl.[Ti+4] (stereo not given in full)
> 25 µM

Repeat for the following compound: CC(C)(C)NC(=O)[C@H]1CC[C@H]2[C@@H]3CC[C@H]4NC(=O)C=C[C@]4(C)[C@H]3CC[C@]12C
> 100 µM

Repeat for the following compound: CCOC(=O)/C(C#N)=C1\SS/C(=C(/C#N)C(=O)OCC)S1
22.4 µM

Repeat for the following compound: COc1ccc(-c2[nH]nc(N)c2-c2cc(OC)c3c(c2)OCO3)cc1
16 µM

Repeat for the following compound: CCOc1ccc2c(c1)CN(Cc1ccc(Cl)cc1)CO2
17.9 µM

Repeat for the following compound: CCCCCC[C@@H](C)Nc1nc2ccccc2c2occc12
14 µM

Repeat for the following compound: CC1C(=O)c2cc3c(cc2CCN(C)Cc2c1ccc1c2OCO1)OCO3 (stereo not given)
> 75 µg/mL

---

# Test system: DMS 114 small cell lung
# experimental.protocol: NCI tumour cell line growth inhibition, 48 h
observed.property: TGI

Item CC1=C(C(=O)NCc2ccccc2)C(c2ccccc2C)C(C(=O)NCc2ccccc2)=C(C)N1 has what recorded TGI?
> 67.7 µM

Repeat for the following molecule: Nc1nnc(CCC(=O)Nc2cc(Cl)ccc2Cl)n1N
> 100 µM

Repeat for the following molecule: COc1cc(-c2ccc(NC(=O)SCCC(=O)O)cc2OC)ccc1NC(=O)SCCC(=O)O
> 100 µM

Repeat for the following molecule: COc1ccccc1-n1c(N)c2c(C)c(-c3ccccc3)[nH]c2nc1=S
> 100 µM

Repeat for the following molecule: CC1(C)OCN(c2ccc(S(N)(=O)=O)cc2)Cn2c1nc1ccccc12
> 100 µM

Repeat for the following molecule: Cc1ccc(NC(=O)CSc2nnc(Cc3ccccc3)o2)cc1
> 100 µM

Repeat for the following molecule: COc1cc(C2C(C(=O)Nc3ccc([N+](=O)[O-])cc3)=C(C)NC(C)=C2C(=O)Nc2ccc([N+](=O)[O-])cc2)ccc1O
> 74.5 µM

Repeat for the following molecule: Cc1cc(=O)n(-c2c(C)cccc2Cl)c(/C=C(\O)c2ccncc2)n1
> 100 µM

Repeat for the following molecule: O=C(CO[N+](=O)[O-])OC/C=C/c1ccccc1
> 100 µM

Repeat for the following molecule: CC(C)N(C(=O)C12C3C4C1C1C2C3C41I)C(C)C (stereo not drawn)
> 100 µM

Repeat for the following molecule: Clc1ccc(OCc2nnc3n2N=C(c2ccc(Br)cc2)CS3)cc1
54 µM

Repeat for the following molecule: CC/C(=N/O)c1ccc2[nH]c3c(C)cc([N+](=O)[O-])c(C)c3c2c1
> 100 µM

Repeat for the following molecule: CCOC(=O)c1cnc2c(ccc3[nH]cccc32)c1=O
> 100 µM

---

# System: RXF 393 renal
# experimental.protocol: NCI tumour cell line growth inhibition, 48 h
observed.property: TGI (µM)
Enter your answer as a number in µM; do not include the unit.

Item Cc1ccc(-c2nc(N3CCNCC3)c3oc(-c4ccccc4)nc3n2)cc1 has what recorded TGI?
3.19

Repeat for the following compound: O=C1/C(=C/c2[nH]ncc2-c2ccc(Cl)cc2)C(=O)N(c2ccccc2)C1c1ccccc1 (stereo unspecified)
49.4

Repeat for the following compound: NC(N)=NS(=O)(=O)c1ccc(NNC(=O)c2cccc3c(=O)c4ccccc4[nH]c23)cc1
77.2

Repeat for the following compound: COc1c(O)cc2c(c1O)C(=O)C1=C(CCCC1)C2=O
45

Repeat for the following compound: Cc1ccc(/C=C/c2c(C(=O)/C=C/c3ccc(Cl)cc3)c(C)nc3ccccc23)cc1
3.45

Repeat for the following compound: C/C(=N/O)c1ccc2c(c1)/C(=N/O)c1ccccc1-2
44.8

Repeat for the following compound: CCOC(=O)c1nc2ccccc2nc1Nc1ccc(OC)cc1
39.7

Repeat for the following compound: CCOC(=O)c1c(-c2cccc(Cl)c2)c(C(=O)OC)c(C)c2sc(C=O)nc12
44.6

Repeat for the following compound: O=C(Nc1cccc(-n2cc(-c3ccncc3)c(-c3ccc(O)c(Cl)c3)n2)c1)c1cc(C(F)(F)F)cc(C(F)(F)F)c1
9.1

Repeat for the following compound: CCN(CC)c1ccc(C2Nc3ccc4ccccc4c3C3=C2C(=O)CCC3)cc1 (stereo unspecified)
59.1

Repeat for the following compound: COc1cccc(/C=N/[N-]C(N)=O)c1[O-].[Ni+2].[OH3+]
0.8

Repeat for the following compound: CCOC(=O)c1c(NC(=O)c2ccccc2)sc2c3c(ccc12)OCN(C)C3
3.2

Repeat for the following compound: CC1=C(C(=O)NCc2ccccc2)C(c2ccccc2C)C(C(=O)NCc2ccccc2)=C(C)N1
43.7

Repeat for the following compound: O=C1C=CC(=Nc2cccc3c(N=C4C=CC(=O)O4)cccc23)O1
50

Repeat for the following compound: O=C1c2cccnc2C(=O)c2c1c(C(=O)NCCn1ccnc1)c1ccccn21
15.7

Repeat for the following compound: CCN(CC)CCC(CNc1ccnc2cc(Cl)ccc12)c1ccccc1 (stereo unspecified)
5.65

Repeat for the following compound: CCCCCCCCCCSC(=O)NC
44.1

Repeat for the following compound: Cc1n[n+]([O-])c(C)cc1[N+](=O)[O-]
66.3

Repeat for the following compound: CCCCCCNC(=S)N/N=C(\C)c1ccccn1
12.5
